system: TK-10; assay: NCI tumour cell line growth inhibition, 48 h
Calls of active or inactive are those of the source. No stated cut-off is given here; in the data, active = GI50 up to about 1.1 µM and inactive = higher.
Result Type: GI50

{"columns": ["Compound", "Observed Result"],
 "data": [
  ["CC(CO)(CBr)COC(=O)c1cc(Br)c(N)c(Br)c1 (stereo not drawn)", "43 µM (inactive)"],
  ["CCC1CCC2c3c([nH]c4ccc(C)cc34)C3C(=O)N(N(C)C)C(=O)C3C2C1 (stereo not drawn)", "32.4 µM (inactive)"],
  ["CCOC(=O)C1=C(C)C(C(=O)OC)/C(=C/c2cccc3cccnc23)C1=O (stereo not drawn)", "> 10 µM (inactive)"],
  ["CSc1[nH]nc(N)c1C(=O)Nc1ccccc1", "> 100 µM (inactive)"],
  ["CC1(C)OC(=O)C(c2ccsc2)C(=O)O1", "> 100 µM (inactive)"],
  ["[O-][Cl+3]([O-])([O-])O.c1ccc(/N=c2\\snc(-c3ccccc3)s2)cc1", "> 100 µM (inactive)"],
  ["CC1OC(n2cc(F)c(=O)[nH]c2=O)C=CC1O (stereo not drawn)", "> 100 µM (inactive)"],
  ["BrC/C=C/C[P+](c1ccccc1)(c1ccccc1)c1ccccc1", "11.6 µM (inactive)"],
  ["O=C1C2=C(N[C@@H](c3ccccc3)[C@H](c3ccccc3)N2)C(=O)c2ccccc21", "> 100 µM (inactive)"],
  ["COc1ccc2nc(/C(N)=C\\C#N)ccc2c1", "59.2 µM (inactive)"],
  ["CCCCCCCCCC(=O)OCC1(CO)C/C(=C/CC(C(C)C)C(C)C)C(=O)O1 (stereo not drawn)", "77.6 µM (inactive)"],
  ["CCCC(=O)OC1=C(c2ccccc2)Sc2ccccc2-n2cccc21", "> 10 µM (inactive)"],
  ["CC1CN(C)c2ccccc2N=C1NN (stereo not drawn)", "> 100 µM (inactive)"],
  ["CNN1C(=O)c2c(N)c(C#N)c(-c3ccccc3)c(-c3ccccc3)c2C1=O", "> 100 µM (inactive)"],
  ["N#CCc1nc(-c2cc3ccccc3oc2=O)cs1", "> 100 µM (inactive)"],
  ["CC[C@@]1(O)C(=O)OCc2c1cc1n(c2=O)Cc2c-1nc1ccccc1c2Cl", "6.21 µM (inactive)"],
  ["CC(NC1=CC(=O)c2cccnc2C1=O)C(O)c1ccccc1 (stereo not drawn)", "14.8 µM (inactive)"],
  ["O=C1Nc2cc(Cl)ccc2C(=O)N2CCC[C@@H]12", "> 100 µM (inactive)"],
  ["O=C1c2c(O)cccc2C(C(=O)CCCCC(=O)C2c3cccc(O)c3C(=O)c3c(O)cccc32)c2cccc(O)c21", "1.55 µM (inactive)"],
  ["O=C1C(c2ccccc2)=[N+]([O-])c2cc([N+](=O)[O-])ccc21", "20.1 µM (inactive)"],
  ["C=C1C(OC)=C(OC)C(=O)c2[nH]c3c(OC)cc([N+](=O)[O-])cc3c21", "> 100 µM (inactive)"],
  ["COc1cc2c[n+](C)c3c4cc(OC)c(OC)cc4c(OC)cc3c2cc1OC", "> 100 µM (inactive)"],
  ["O=C(CN1CCCCC1)Nc1ccc2sc3ccccc3c(=O)c2n1", "19.1 µM (inactive)"]
]}
